src = PubChem BioAssay AID652257

List of inhibition values.
system: Protein arginine N-methyltransferase 1 (Homo sapiens)
assay-comment: human PRMT1 activity-probe blockers – biochemical, fluorescence polarization, primary screen (AID 652257)
assay-setup: recombinant PRMT1, activity-based probe fluorescence polarization; at 2.79 µM; stronger effect = higher value
The campaign covered roughly 370,000 compounds. About 4,800 (1.3%) were called active. This excerpt belongs to a sample that is enriched for actives.
Report the figure in % without appending any unit label.

compound	units-text	inhibition
COc1ccc(CCN2CNc3c(c(=O)n(C)c(=O)n3C)C2)cc1OC	%	5.09
Nc1nc(CC(=O)CSc2ccc(Cl)cc2)nc(Nc2ccc(F)cc2)n1	%	-4.39
CC12CCC(C(=O)N(CCC#N)CCC#N)(CC1=O)C2(C)C (centres undefined)	%	-1.4
CC(=O)Oc1ccc(C(C)=O)c2c1OCCO2	%	-0.56
Cc1cccc(N2CCC(NCc3c(C(=O)N4CCCCC4)nc4c(C)cccn34)CC2)c1	%	7.11

Query block: Name the recorded inhibition of the item CCOC(=O)C1=C(C)NC2=C(C(=O)CC(C)(C)C2)C1c1ccc2c(c1)OCO2 (centres undefined) in your answer.
Result block: -1.8

Query block: Indicate the recorded inhibition value for this compound: COC(=O)[C@]12C[C@H](CC(=O)NCc3cccc4ccccc34)C(=O)N(CCc3ccc(OC)c(OC)c3)C1=C[C@H](C1CCCC1)O[C@@H]2C
Result block: -7.72

Query block: Given c1ccc(C(=NNc2nc3ccccc3s2)c2ccccn2)cc1 , respond with its inhibition.
Result block: 27.5

Query block: Please indicate inhibition recorded for COC(=O)[C@@]12C[C@@H](CC(=O)NCCCCc3ccccc3)C(=O)N(CCc3ccc(OC)c(OC)c3)C1=CCC(C)(C)C2
Result block: 3.69

----------
system: Protein arginine N-methyltransferase 1 (Homo sapiens) (UniProt Q99873)
Sequence (Q99873 whole entry, looked up): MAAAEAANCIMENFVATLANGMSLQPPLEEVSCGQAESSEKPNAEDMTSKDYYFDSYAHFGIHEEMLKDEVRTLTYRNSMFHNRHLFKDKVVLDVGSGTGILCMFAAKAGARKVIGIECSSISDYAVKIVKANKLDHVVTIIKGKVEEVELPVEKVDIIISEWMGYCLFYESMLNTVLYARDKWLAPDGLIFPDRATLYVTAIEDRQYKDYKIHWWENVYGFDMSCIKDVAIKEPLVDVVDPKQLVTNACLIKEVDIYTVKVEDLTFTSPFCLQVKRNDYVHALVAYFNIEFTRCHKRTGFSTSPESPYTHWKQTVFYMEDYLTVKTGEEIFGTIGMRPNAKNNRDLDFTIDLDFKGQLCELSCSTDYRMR
assay-comment: human PRMT1 activity-probe blockers – biochemical, fluorescence polarization, primary screen (AID 652257)
assay-setup: recombinant PRMT1, activity-based probe fluorescence polarization; at 2.79 µM; stronger effect = higher value
Out of some 370,000 compounds screened, about 4,800 (1.3%) were called active. The full list was thinned out, with actives kept by preference.
endpoint-label: inhibition (%)
Reply numerically in %, unit not repeated.

molecule	inhibition / %
CCOc1ccc2[nH]c(=S)sc2c1	10.4
O=C(COC(=O)Cc1ccc(F)cc1)Nc1cc(S(=O)(=O)N2CCOCC2)ccc1N1CCCC1	-0.54
O=c1[nH]c2ccccc2s1	5.51
CN1C2CCC1CC(NC(=O)c1ccc([N+](=O)[O-])cc1)C2 (stereo unspecified)	-4.9
Cc1cc(C)cc(C(=O)N2CCN=C2SCc2ccc([N+](=O)[O-])cc2)c1	-6.78

Query block: Write down inhibition measured for item Nn1c(SCC(=O)Nc2cccc3ccccc23)nnc1-c1cc(-c2ccc(F)cc2)n[nH]1
Result block: 2.17

Query block: Dear colleague, please send me the reported inhibition for COc1ccc(-n2c(SCC(=O)Nc3ccccc3-c3ccccc3)nnc2-c2cccnc2)cc1 when you can.
Result block: -3.53

Query block: Give a short answer stating reported inhibition for O=C1C(=O)N(Cc2ccc(-c3ccsc3)cc2)c2ccc(OC(F)(F)F)cc21 .
Result block: -4.19

Query block: Specify measured inhibition for COC(=O)c1c(-c2ccc(OC)cc2)c2c(c3c4ccccc4n(S(=O)(=O)c4ccc(C)cc4)c13)C(=O)N(C)C2 .
Result block: 3.01

Query block: Report measured inhibition; entry is O=c1[nH]c2c(c(=O)n1-c1ccccc1)CCO2
Result block: 3.18

Query block: Give inhibition for the following molecule: Nc1ccc2[nH]c(=S)sc2c1
Result block: 28.3

Query block: Please give measured inhibition of the following entry: COc1cccc2c1C(=O)c1c(O)c3c(c(O)c1C2=O)CC(O)(C(C)=NNC(=O)c1ccc(Cl)c(Cl)c1)CC3OC1CC(N)C(O)C(C)O1 (stereo unspecified)
Result block: 179

----------
system: Protein arginine N-methyltransferase 1 (Homo sapiens) (UniProt Q99873)
assay-comment: human PRMT1 activity-probe blockers – biochemical, fluorescence polarization, primary screen (AID 652257)
assay-setup: recombinant PRMT1, activity-based probe fluorescence polarization; at 2.79 µM
Hit rate of the full screen: of about 370,000 compounds, about 4,800 (1.3%) were called active.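 How the source made its calls: active means inhibition above about 21% made by adding two undisclosed values (limit read from the data); inactive means the rest.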 What follows is part of a selection rich in actives, with near analogues and random picks from the rest.
API: response.call in active, inactive

Use the examples below as a reference point.
compound	class-name
O=C(Nc1ccccc1C(=O)N1CCCCC1)c1ccco1	inactive
COc1ccc(Nc2nc(-c3cccnc3)nc3ccccc23)cn1	active
CCCCNC(=O)C[C@@H]1C(=O)N(CCc2ccc(Cl)cc2)C2=CCCC[C@]21C(=O)OCC	inactive
Cc1ccc2nc(CN(C)C(=O)[C@@H](Cc3ccccc3)NC(=O)[C@H]3O[C@@H](n4ccc(=O)[nH]c4=O)[C@H](O)[C@@H]3O)[nH]c2c1	inactive
O=C(CSc1n[nH]c(-c2cccnc2)n1)Nc1ccnc2ccccc12	inactive

Query block: Lab log entry: FC(F)(F)c1nc2ccccc2nc1N/N=C/c1ccc(Cl)cc1 — outcome as called in the assay?
Result block: active

Query block: What did this assay record as the result for Cc1ccc(C2=CCN(C)C(=O)N2c2ccc(Cl)cc2)cc1 ?
Result block: inactive

----------
system: Protein arginine N-methyltransferase 1 (Homo sapiens)
assay-comment: human PRMT1 activity-probe blockers – biochemical, fluorescence polarization, primary screen (AID 652257)
assay-setup: recombinant PRMT1, activity-based probe fluorescence polarization; at 2.79 µM; stronger effect = higher value
The campaign covered roughly 370,000 compounds. About 4,800 (1.3%) were called active. For the sample, actives were picked, then their nearest neighbours and some compounds at random.
endpoint-label: inhibition (%)
// units = %; emit number, no label

Query block: Would you please give the reported inhibition of COc1ccc(N2CCN(CCNS(=O)(=O)c3ccc(C(C)(C)C)cc3)CC2)cc1 with Protein arginine N-methyltransferase 1 (Homo sapiens)?
Result block: 0.09

Query block: Name the recorded inhibition of COc1cccc(/C=C2\CC3(OC(C)=O)CCCN2C3)c1 (stereo not given) , assay system Protein arginine N-methyltransferase 1 (Homo sapiens).
Result block: -1.33

Query block: Write inhibition of CN(C(=O)CN1CCN(c2cc(-c3ccc(OCc4ccccc4)cc3)ncn2)CC1)c1ccccc1 ; system used: Protein arginine N-methyltransferase 1 (Homo sapiens)
Result block: -1.91

Query block: Jot down inhibition (Protein arginine N-methyltransferase 1 (Homo sapiens)) of C=CCN1C(=O)[C@@H](CC(=O)NCCCOCCCC)[C@]2(C(=O)OCC)CCCCC/C=C/12 .
Result block: 2.37

Query block: Find the measured inhibition of O=C(C[C@H]1C[C@H](C(=O)N2CCOCC2)[C@@]2(CCC3CCCC3)c3[nH]c4ccc(Cl)cc4c3CCN2C1=O)NCc1ccco1 with Protein arginine N-methyltransferase 1 (Homo sapiens) as test system.
Result block: -5.92

Query block: Report its inhibition with Protein arginine N-methyltransferase 1 (Homo sapiens) as the test system: Cc1cc(C(=O)OCC(=O)c2c(N)n(C)c(=O)n(C)c2=O)c(C)o1
Result block: -0.81

Query block: State inhibition (Protein arginine N-methyltransferase 1 (Homo sapiens)) of CCOC(=O)[C@]12CCCC3=C1N(CCC3)C(=O)[C@@H](CC(=O)NCC13CC4CC(CC(C4)C1)C3)C2 .
Result block: -3.58

Query block: Write down measured inhibition (Protein arginine N-methyltransferase 1 (Homo sapiens)) for this compound. CC1(C(=O)NCc2ccc3c(c2)OCO3)CCN1C(=O)Cc1cccc2ccccc12 (stereo not given)
Result block: 24.5

Query block: State the measured inhibition (Protein arginine N-methyltransferase 1 (Homo sapiens)) of CCCOc1ccc(Oc2c(Cl)cnn(Cc3cccc4ccccc34)c2=O)cc1
Result block: 1.97

Query block: Lab note: Protein arginine N-methyltransferase 1 (Homo sapiens) assay, enter inhibition for CC1(C(=O)NCc2ccc3c(c2)OCO3)CCN1CCc1ccccc1 (stereo not given) here
Result block: -4.72

----------
system: Protein arginine N-methyltransferase 1 (Homo sapiens) (UniProt Q99873)
assay-comment: human PRMT1 activity-probe blockers – biochemical, fluorescence polarization, primary screen (AID 652257)
assay-setup: recombinant PRMT1, activity-based probe fluorescence polarization; at 2.79 µM; stronger effect = higher value
Screen size: about 370,000 compounds; about 4,800 (1.3%) were called active. The full list was thinned out, with actives kept by preference.
// values below are reported inhibition
Please respond with the number in % and leave the unit unwritten.

compound	units-text	inhibition
CN(C)S(=O)(=O)c1ccc(Cl)c(NC(=O)COC(=O)CC(NC(N)=O)c2ccc(Cl)cc2)c1 (configuration not stated)	%	-6.61
CC(=O)N/C(=C\c1ccccc1)C(=O)OC(C)C(=O)N(C)c1ccccc1 (configuration not stated)	%	-2.28
COc1cccc(NC(=O)CSc2nccn(-c3ccc4c(c3)OCCO4)c2=O)c1	%	29.1
O=C(CCNC(=O)c1ccccc1)NN=Cc1ccc(Br)o1	%	24.6
O=C(NC1CCC1)c1ccc(C#Cc2cccc(F)c2)c[n+]1[O-]	%	-4.9

Query block: Using the record for CCOC(=O)[C@@]12CCC3=C1N(CCC3)C(=O)[C@H](CC(=O)N1CCN(C(=O)c3ccco3)CC1)C2 , state its measured inhibition.
Result block: -2.33

Query block: For the compound CC(=O)N1CCOc2ccc(S(=O)(=O)N3CCC(C(=O)Nc4ccccc4F)CC3)cc21 , give its measured inhibition value.
Result block: -0.05

Query block: Please list inhibition recorded for the compound CCOc1ccc(N(CC(=O)NCCc2ccc(F)cc2)S(=O)(=O)c2ccccc2)cc1
Result block: 1.75

Query block: Determine from records and report inhibition for c1ccc(C2CNCc3c2ccc2ccccc32)cc1 (configuration not stated)
Result block: 2.21

Query block: Assign inhibition to the following record: CC(C)(C)c1cc(CN2CCN(CCC#N)CC2)cc(C(C)(C)C)c1O
Result block: 9
